- target-entity: EGFR (A767_dupASV) expressing Ba/F3 stable cell line (Homo sapiens, UniProt P00533, DUP767-769, cells depend on it)
- Sequence (P00533 with tags, fused parts or gaps DUP767-769): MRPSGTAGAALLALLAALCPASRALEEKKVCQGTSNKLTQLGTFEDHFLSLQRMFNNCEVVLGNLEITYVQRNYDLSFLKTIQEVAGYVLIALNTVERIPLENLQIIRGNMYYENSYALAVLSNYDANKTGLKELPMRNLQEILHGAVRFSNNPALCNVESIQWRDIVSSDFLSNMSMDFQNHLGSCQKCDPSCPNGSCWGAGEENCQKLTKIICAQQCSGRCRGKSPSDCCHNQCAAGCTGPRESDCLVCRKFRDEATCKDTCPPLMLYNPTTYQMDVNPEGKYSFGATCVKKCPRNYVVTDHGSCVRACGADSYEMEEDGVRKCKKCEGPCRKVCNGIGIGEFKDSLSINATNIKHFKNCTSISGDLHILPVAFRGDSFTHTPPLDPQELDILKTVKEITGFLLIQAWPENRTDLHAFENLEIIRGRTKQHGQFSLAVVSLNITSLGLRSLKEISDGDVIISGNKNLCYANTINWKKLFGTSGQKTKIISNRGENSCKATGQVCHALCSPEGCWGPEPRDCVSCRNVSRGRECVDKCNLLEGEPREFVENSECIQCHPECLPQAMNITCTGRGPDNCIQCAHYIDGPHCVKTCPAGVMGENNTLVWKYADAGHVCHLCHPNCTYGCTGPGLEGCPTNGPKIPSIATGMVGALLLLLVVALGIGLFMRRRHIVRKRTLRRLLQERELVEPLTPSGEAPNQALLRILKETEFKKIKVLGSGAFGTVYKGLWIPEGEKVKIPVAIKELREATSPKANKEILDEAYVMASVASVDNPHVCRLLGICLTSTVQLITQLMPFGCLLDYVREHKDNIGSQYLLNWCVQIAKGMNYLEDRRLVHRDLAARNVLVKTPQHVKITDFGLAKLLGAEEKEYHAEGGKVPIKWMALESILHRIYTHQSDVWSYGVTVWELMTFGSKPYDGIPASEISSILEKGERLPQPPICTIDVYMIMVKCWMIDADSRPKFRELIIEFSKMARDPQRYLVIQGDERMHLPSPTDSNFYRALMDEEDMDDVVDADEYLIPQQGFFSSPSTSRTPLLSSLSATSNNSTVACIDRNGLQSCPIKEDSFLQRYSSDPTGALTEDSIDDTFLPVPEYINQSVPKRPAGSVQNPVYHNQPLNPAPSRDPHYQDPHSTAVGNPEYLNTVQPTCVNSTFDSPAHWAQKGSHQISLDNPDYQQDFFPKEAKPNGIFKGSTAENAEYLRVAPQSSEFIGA
- assay-protocol: Cellular proliferation (Alamar Blue) assay, EGFR A767_dupASV Ba/F3
- Assay type: cell-based
- condition-notes: 72 hr, read-out: A767 IC50
Counter-ions that a name gives are not always drawn.
parameter-measured: GI50

>>> endpoint_value("C=CC(=O)Nc1ccc(F)c(Nc2nc(Nc3cnn(C)c3)ncc2-c2ccc3ccoc3c2)c1 [Compound 299]")
"257 nM"
>>> endpoint_value("C=CC(=O)Nc1ccc(F)c(Nc2nc(Nc3cnn(C)c3)ncc2-c2cncc(OC)c2)c1 [Compound 141]")
"100 nM"
>>> endpoint_value("C=CC(=O)Nc1cc(F)cc(Nc2nc(Nc3cnn(C)c3)ncc2-c2ccc(Br)cc2)c1 [Compound 207]")
"31 nM"
>>> endpoint_value("C=CC(=O)Nc1ccc(F)c(Nc2nc(Nc3cnn(C)c3)ncc2-c2ccc(F)cc2)c1 [Compound 63]")
"102 nM"
>>> endpoint_value("Cn1cc(Nc2ncc(-c3ccc(CC(F)(F)F)cc3)c(Nc3cc(NC(=O)/C=C/CF)ccc3F)n2)cn1 [Compound 303]")
"248 nM"
>>> endpoint_value("C=CC(=O)Nc1cccc(Nc2nc(Nc3cnn(C)c3)ncc2-c2ccc(C(F)(F)F)cc2)c1F [Compound 148, trifluoroacetate]")
"56 nM"
>>> endpoint_value("Cn1cc(Nc2ncc(Cl)c(Nc3cc(NC(=O)/C=C/CF)ccc3F)n2)cn1 [Compound 7]")
"995 nM"

----------
- target-entity: EGFR (A767_dupASV) expressing Ba/F3 stable cell line (Homo sapiens, UniProt P00533, DUP767-769, cells depend on it)
- assay-protocol: Cellular proliferation (Alamar Blue) assay, EGFR A767_dupASV Ba/F3
- Assay type: cell-based
- condition-notes: 72 hr, read-out: A767 IC50
Structures can show the parent of a compound that is named as a salt.
Each entry below lists one item and its recorded GI50 value.
parameter-measured: GI50

>>> endpoint_value("CN(C)C/C=C/C(=O)Nc1ccc(Cl)c(Nc2nc(Nc3cnn(C)c3)ncc2Cl)c1")
"> 10 µM"
>>> endpoint_value("COC/C=C/C(=O)Nc1ccc(F)c(Nc2nc(Nc3cnn(C)c3)ncc2Cl)c1")
"> 10 µM"
>>> endpoint_value("C=CC(=O)Nc1ccc(F)c(Nc2nc(Nc3cnn(C)c3)ncc2-c2ccc(C(F)F)nc2)c1")
"0.035 µM"
>>> endpoint_value("C=CC(=O)Nc1ccc(F)c(Nc2nc(Nc3ccccc3Cl)ncc2-c2ccc(C(F)(F)F)cc2)c1 [Compound 40, trifluoroacetate]")
"> 10 µM"

----------
- target-entity: HER2 (A775_G776insYVMA) expressing Ba/F3 stable cell line (Homo sapiens, UniProt P04626, DUP772-775, cells depend on it)
- Sequence (P04626 with tags, fused parts or gaps DUP772-775): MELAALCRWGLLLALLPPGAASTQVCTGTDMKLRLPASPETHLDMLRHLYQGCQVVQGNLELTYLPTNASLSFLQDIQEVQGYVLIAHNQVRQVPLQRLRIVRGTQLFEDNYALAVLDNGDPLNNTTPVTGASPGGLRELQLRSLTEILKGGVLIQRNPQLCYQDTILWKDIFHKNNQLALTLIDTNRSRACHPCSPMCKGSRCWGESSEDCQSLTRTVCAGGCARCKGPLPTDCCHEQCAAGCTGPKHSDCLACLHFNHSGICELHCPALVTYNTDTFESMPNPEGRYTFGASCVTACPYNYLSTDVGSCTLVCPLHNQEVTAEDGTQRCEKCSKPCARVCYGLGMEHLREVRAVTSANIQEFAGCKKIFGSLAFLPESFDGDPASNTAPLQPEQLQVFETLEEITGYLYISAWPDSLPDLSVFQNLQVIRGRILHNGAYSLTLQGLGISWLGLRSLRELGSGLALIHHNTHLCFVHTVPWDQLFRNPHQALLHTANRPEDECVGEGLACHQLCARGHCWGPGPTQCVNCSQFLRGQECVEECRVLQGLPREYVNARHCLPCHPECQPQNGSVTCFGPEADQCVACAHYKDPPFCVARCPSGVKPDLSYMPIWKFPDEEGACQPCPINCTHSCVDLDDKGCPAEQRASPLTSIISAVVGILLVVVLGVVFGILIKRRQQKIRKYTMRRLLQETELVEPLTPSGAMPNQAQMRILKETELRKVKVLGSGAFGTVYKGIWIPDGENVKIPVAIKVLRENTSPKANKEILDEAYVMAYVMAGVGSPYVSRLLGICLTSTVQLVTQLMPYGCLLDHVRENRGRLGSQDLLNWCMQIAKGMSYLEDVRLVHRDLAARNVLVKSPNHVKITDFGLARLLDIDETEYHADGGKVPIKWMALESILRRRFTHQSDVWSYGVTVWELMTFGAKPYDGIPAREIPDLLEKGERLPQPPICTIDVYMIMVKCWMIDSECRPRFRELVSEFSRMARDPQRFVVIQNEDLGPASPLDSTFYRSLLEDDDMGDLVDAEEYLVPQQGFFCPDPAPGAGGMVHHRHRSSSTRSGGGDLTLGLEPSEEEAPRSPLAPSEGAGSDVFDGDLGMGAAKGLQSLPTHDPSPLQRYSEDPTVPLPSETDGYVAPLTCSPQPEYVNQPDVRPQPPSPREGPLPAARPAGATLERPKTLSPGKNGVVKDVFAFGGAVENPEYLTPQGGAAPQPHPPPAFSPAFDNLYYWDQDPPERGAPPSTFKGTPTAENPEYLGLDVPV
- assay-protocol: Cellular proliferation (Alamar Blue) assay, HER2 A775_G776insYVMA Ba/F3
- Format: cell-based
- condition-notes: 72 hr, read-out: YVMA IC50
Structures can show the parent of a compound that is named as a salt.
parameter-measured: GI50

>>> endpoint_value("C=CC(=O)Nc1ccc(F)c(Nc2nc(Nc3cnn(C)c3)ncc2-c2ccc(Cl)cc2)c1")
"219 nM"
>>> endpoint_value("C=CC(=O)Nc1ccc(F)c(Nc2nc(Nc3ccc(CN(C)C)cc3)ncc2Cl)c1")
"764 nM"
>>> endpoint_value("C=CC(=O)Nc1ccc(F)c(Nc2nc(Nc3cn(CCN(C)C)nc3Cl)ncc2-c2ccc(Br)cc2)c1")
"402 nM"
>>> endpoint_value("C=CC(=O)Nc1cccc(Nc2ncc(Cl)c(Nc3cnn(C)c3)n2)c1")
"3050 nM"
>>> endpoint_value("CN(C)C/C=C/C(=O)Nc1ccc(F)c(Nc2nc(Nc3cnn(C)c3)ncc2C#Cc2ccccc2)c1")
"1880 nM"
>>> endpoint_value("C=CC(=O)Nc1ccc(F)c(Nc2nc(Nc3cnn(C(C)(C)C#N)c3)ncc2C2=CCOC2)c1")
"602 nM"
>>> endpoint_value("CN(C)C/C=C/C(=O)Nc1ccc(Cl)c(Nc2nc(Nc3cnn(C)c3)ncc2Cl)c1")
"7490 nM"
>>> endpoint_value("C=CC(=O)Nc1ccc(F)c(Nc2nc(Nc3cnn(C)c3)ncc2-c2ccc(OC(F)(F)F)cc2)c1")
"612 nM"
>>> endpoint_value("C=CC(=O)Nc1ccc(F)c(Nc2nc(Nc3cnn(C)c3)ncc2-c2ccc(OCc3cccc(F)c3)cc2)c1")
"861 nM"
>>> endpoint_value("C=CC(=O)Nc1ccc(F)c(Nc2nc(Nc3cnn(C)c3)ncc2-c2ccc(F)cc2)c1")
"344 nM"
>>> endpoint_value("C=CC(=O)Nc1ccc(F)c(Nc2nc(Nc3cnn(C)c3)ncc2-c2ccc(C(F)(F)C(F)(F)F)cc2)c1")
"971 nM"
>>> endpoint_value("C=CC(=O)Nc1ccc(F)c(Nc2nc(Nc3cnn(C)c3)ncc2-c2cncc(F)c2)c1")
"19 nM"
>>> endpoint_value("CN(C)C/C=C/C(=O)Nc1cccc(Nc2nc(Nc3cnn(C)c3)ncc2NCc2ccccc2)c1")
"3030 nM"
>>> endpoint_value("CN(C)C/C=C/C(=O)Nc1ccc(F)c(Nc2nc(Nc3cnn(C4CCC(O)CC4)c3)ncc2Cl)c1 (stereo not drawn)")
"4280 nM"
>>> endpoint_value("C=CC(=O)Nc1ccc(F)c(Nc2nc(Nc3cnn(C)c3)ncc2-c2ccc3c(ccn3C)c2)c1 [Compound 77, trifluoroacetate]")
"2750 nM"
